Recorded values, source patent US20210324054A1.

biological target: DN-IV quality control recombinant protein (produced by the company) (dengue virus); experiment: BLI, antibody on AMC sensor
measured_attribute: koff (s⁻¹)
Could you give me the number in s⁻¹? Just the number is fine.

Mutation 1-10 (antibody, V domains shown) VH: EVQLQQPGPELVKPGASVKMSCKASGYTFTSSVIHWVRQKPGQGLEWIGYMNPYNDGIKYNEKFIGKAILTSDKSSSTAYMQLSSLTSEDSAVYYCTKEGLFYVMDYWGQGTSVTVSS VL: QIVLTQSPAIMSASPGEKVTMTCSATSSLSYMHWYQQKSGTSPKRWIYDTSKLASGVPVRFSGSGSGTSYSLTISSMEAEDAATYFCQWWRSDLPTFGAGTKLELKR	0.000129
Mutation 1-38 (antibody, V domains shown) VH: EVQLQQPGPELVKPGASVKMSCKASGYTFTSYVIHWVRQKPGQGLEWIGYMNPYNDGLKYNEKFIGKAILTSDKSSSTAYMQLSSLTSEDSAVYYCTKEGLFYVMDYWGQGTSVTVSS VL: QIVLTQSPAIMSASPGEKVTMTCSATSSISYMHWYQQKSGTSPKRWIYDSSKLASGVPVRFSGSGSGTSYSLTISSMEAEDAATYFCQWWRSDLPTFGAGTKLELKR	0.000292
Mutation 1-27 (antibody, V domains shown) VH: EVQLQQPGPELVKPGASVKMSCKASGYTFTSTVIHWVRQKPGQGLEWIGYMNPYNDGLKYNEKFIGKAILTSDKSSSTAYMQLSSLTSEDSAVYYCTREGLFYVFDYWGQGTSVTVSS VL: QIVLTQSPAIMSASPGEKVTMTCSATSSVSYMHWYQQKSGTSPKRWIYDSSKLASGVPVRFSGSGSGTSYSLTISSMEAEDAATYFCQQWRSDLPTFGAGTKLELKR	0.000149
Mutation 1-14 (antibody, V domains shown) VH: EVQLQQPGPELVKPGASVKMSCKASGYTFTSYVIHWVRQKPGQGLEWIGYMNPYNDGIKYNEKFIGKAILTSDKSSSTAYMQLSSLTSEDSAVYYCTKEGLFYVMDYWGQGTSVTVSS VL: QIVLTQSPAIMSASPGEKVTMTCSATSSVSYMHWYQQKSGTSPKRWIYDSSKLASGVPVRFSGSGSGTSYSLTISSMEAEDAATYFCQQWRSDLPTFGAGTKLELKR	0.00012

Shifting focus to the binder that follows.
Quick one: koff for Mutation 1 (antibody, V domains shown) VH: EVQLQQPGPELVKPGASVKMSCKASGYTFTSTVIHWVRQKPGQGLEWIGYMNPYNDGLKYNEKFIGKAILTSDKSSSTAYMQLSSLTSEDSAVYYCTKEGLFYVMDYWGQGTSVTVSS VL: QIVLTQSPAIMSASPGEKVTMTCSATSSISYMHWYQQKSGTSPKRWIYDTSKLASGVPVRFSGSGSGTSYSLTISSMEAEDAATYFCQQWRSDLPTFGAGTKLELKR ? 0.000126
